Test system: SN12C
Experiment: NCI tumour cell line growth inhibition, 48 h
Activity calls are given as the source filed them. Cut-off read from the data, not from the text of the source: active = GI50 up to about 1.1 µM and inactive = higher.
Please reply with one of these outcomes: class 1 for active, class 0 for inactive

COC(=O)c1c(C)cccc1/C=C1\Cc2ccc(C)c(C)c2C1=O	class 0

Given CC(C)(C)[Si](C)(C)OCC1CCC(n2cnc3c(N)ncnc32)O1 (stereo not drawn) , state the outcome it received in this test. class 0

Same thing, different molecule: c1ccc2sc(SSSc3nc4ccccc4s3)nc2c1 class 0

Same thing, different molecule: CCN1CCC(O)(c2ccc(Oc3ccc(F)cc3)cc2)C(C(=O)c2ccc(Oc3ccc(F)cc3)cc2)C1 (stereo not drawn) class 0

Same thing, different molecule: COc1ccc2c(c1)-c1c(c3ccccc3n1CCN1CCCCC1)CC2 class 0

Same thing, different molecule: COc1cc([C@@H]2c3cc4c(cc3[C@@H](NC(=O)c3cccc(F)c3)C3COC(=O)[C@@H]32)OCO4)cc(OC)c1O (stereo partly drawn) class 1

Same thing, different molecule: OC1(c2ccccc2)CSc2ncnn21 (stereo not drawn) class 0

###

System: OVCAR-5
Experiment: NCI tumour cell line growth inhibition, 48 h
Calls of active or inactive are those of the source. No stated cut-off is given here; in the data, active = GI50 up to about 1.1 µM and inactive = higher.
Please reply with one of these outcomes: true for active, false for inactive

For orientation, consider the following solved cases.
CCN(CC)C1=Nc2ccccc2-n2c(C)cnc2C1	false
O=C1CSC2=NC3=C(CSC/C3=C\c3ccccc3)C(c3ccccc3)N12 (configuration not stated)	false
CC(=O)OC(C(=O)NNC(=O)OC(C)(C)C)c1ccccc1 (configuration not stated)	false

Given O=c1c2c3c(sc2nc2n1N=CN(c1ccc(Cl)cc1)C2)CCCC3 , state the outcome it received in this test. false

Same thing, different molecule: O=C(c1ccccc1)c1ccc2nc3n(c2c1)C(c1c(F)cccc1F)SC3 (configuration not stated) false

Same thing, different molecule: CC(=O)/C(C)=N/NC(=O)c1ccccc1O false

Same thing, different molecule: COCC(O)CN1C(N)=NC(O)C1O (configuration not stated) false

###

Listing of entries alongside the reported GI50.
System: UO-31
Experiment: NCI tumour cell line growth inhibition, 48 h
Calls of active or inactive are those of the source. Rule as the data show it: active = GI50 up to about 1.1 µM and inactive = higher.

Example entries begin here.
N#C/C(=C\c1ccc(Br)cc1)c1nc(-c2cc3ccccc3oc2=O)cs1	20.2 µM (inactive)
O=C(COc1ccc(OCC(=O)N2C(=O)CC(=O)N(c3ccc(Cl)cc3)C2=S)cc1)N1C(=O)CC(=O)N(c2ccc(Cl)cc2)C1=S	31.7 µM (inactive)
Clc1cc2nc[nH]c2cc1Cl	48.2 µM (inactive)
C[C@]12CC[C@H](O)CC1=CC[C@@H]1C2CC[C@]2(C)NC(=O)C(C#N)CC12 (stereo not given in full)	> 100 µM (inactive)

For the record COc1ccc2c3ccc4c(c3n(C)c2c1)C(=O)c1ccccc1C4=O , what value of GI50 is listed for UO-31? > 100 µM (inactive)

###

Listing of entries alongside the reported GI50.
System: HCC 2998
Test: NCI tumour cell line growth inhibition, 48 h
The source made the active and inactive calls. No stated cut-off is given here; in the data, active = GI50 up to about 1.1 µM and inactive = higher.

Example entries begin here.
CC(C)[Si](OCC1CC(C[C@H]2CC(C[C@H]3C[C@@H](CO[Si](C(C)C)(C(C)C)C(C)C)OC(C)(C)O3)OC(C)(C)O2)OC(C)(C)O1)(C(C)C)C(C)C (some centres undefined)	> 100 µM (inactive)
N#CC1C(=O)Nc2sc(C(=O)c3ccc(Br)cc3)c(N)c2C12CCCCC2 (centres undefined)	22.5 µM (inactive)
O=C1CNC(=O)/C(=C/c2c[nH]c3ccccc23)N1	> 100 µM (inactive)

Give the measured GI50 of CN1[C@@H]2CCCC[C@H]2N(C)P1(=O)C(O)/C=C/c1ccccc1 (some centres undefined) . > 100 µM (inactive)

Same thing, different compound: Cc1ccc(NC(=O)c2cccc([N+](=O)[O-])c2O)c([N+](=O)[O-])c1 15.9 µM (inactive)

Same thing, different compound: Cc1ccc(-c2c(C#N)c(-c3ccc(Cl)cc3)c(C#N)c(=O)n2NS(=O)(=O)c2ccc(C)cc2)cc1 19.5 µM (inactive)

Same thing, different compound: O=C(NC(Cc1c[nH]cn1)C(=O)N1CCCC1)C1CCCC1 (centres undefined) > 100 µM (inactive)

Same thing, different compound: CCCN(CCCCN1C(=O)c2ccccc2C1=O)CC1COc2ccccc2O1 (centres undefined) 83.2 µM (inactive)

Same thing, different compound: CCCCCCCCC[C@@H]1C[C@H](O)[C@H](Cc2ccccc2)N1C(=O)OC(C)(C)C 14.4 µM (inactive)

###

System: 786-0
Experiment: NCI tumour cell line growth inhibition, 48 h
Activity calls are given as the source filed them. No stated cut-off is given here; in the data, active = GI50 up to about 1.1 µM and inactive = higher.
Please reply with one of these outcomes: class 1 = active, class 0 = inactive

For orientation, consider the following solved cases.
COc1ccc(/C=N/n2c(=O)[nH]c3ccccc3c2=O)cc1	class 0
OCC(O)C(O)C(O)c1nn(-c2ccc(Cl)cc2)c2nc3cc(Cl)c(Cl)cc3nc12 (stereo not drawn)	class 0

Given c1ccc([P+](c2ccccc2)(c2ccccc2)C2c3ccccc3-c3ccccc32)cc1 , state the outcome it received in this test. class 0

Same thing, different molecule: Cc1ccc(-c2nc3ccccc3c(=O)n2NCC2(O)OCC(O)C(O)C2O)cc1 (stereo not drawn) class 0

###

Test system: A498
Assay: NCI tumour cell line growth inhibition, 48 h
Calls of active or inactive are those of the source. Rule as the data show it: active = GI50 up to about 1.1 µM and inactive = higher.
Listing of entries alongside the reported GI50.

Example entries begin here.
Cc1ccc(S(=O)(=O)Nc2ccccc2C(=O)c2ccc(C)c(C)c2)cc1	94.6 µM (inactive)
O=C1C[C@@H](C(=O)OCc2ccccc2)NC(=O)C[C@@H](C(=O)OCc2ccccc2)NC(=O)C[C@@H](C(=O)OCc2ccccc2)N1	27.5 µM (inactive)
O=C(O)CCCCCCCCC(=O)O	> 23.2 µM (inactive)
COc1ccc(CCN2CCc3c(C)c(C#N)c4nc5ccccc5n4c32)cc1OC	54.6 µM (inactive)
Cc1ccc(-c2nc3ccccc3c(=O)n2NCC2(O)OCC(O)C(O)C2O)cc1 (stereo not given)	> 100 µM (inactive)
Cc1ccc(O)c(C(c2cc(C)ccc2O)c2cc([N+](=O)[O-])ccc2O)c1	17.2 µM (inactive)

Give the measured GI50 of N#CCN1CCCN(CC#N)CCN(CC#N)CCCN(CC#N)CC1 . > 100 µM (inactive)

Same thing, different molecule: COc1ccc(N2C(=O)C3c4[nH]c5ccc(OCc6ccccc6)cc5c4C4CCC(C(C)(C)C)CC4C3C2=O)cc1 (stereo not given) > 100 µM (inactive)

Same thing, different molecule: COc1cc2c[n+]3ccc4cc(OC)c(OC)cc4c3cc2cc1O > 100 µM (inactive)

Same thing, different molecule: Cn1c(=O)c2c(no[n+]2[O-])c2ccccc21 31.9 µM (inactive)

###

System: RXF 393
Experiment: NCI tumour cell line growth inhibition, 48 h
Activity calls are given as the source filed them. Cut-off read from the data, not from the text of the source: active = GI50 up to about 1.1 µM and inactive = higher.
Please reply with one of these outcomes: 1 = active, 0 = inactive

For orientation, consider the following solved cases.
Cc1csc(NNC(N)=O)n1	0
Brc1ccc(C2CC(c3cccc4ccccc34)=Nc3ccccc3S2)cc1 (centres undefined)	0
COc1ccc(CNc2nc(NC3CCCCC3)nc(NC3CCCCC3)n2)cc1	0

Given N#CCN1CCCN(CC#N)CCN(CC#N)CCCN(CC#N)CC1 , state the outcome it received in this test. 0

Same thing, different compound: O=C(O)/C=C/c1c[nH]cn1 0

Same thing, different compound: Oc1cc(Br)cc2cc(Br)cnc12 0

Same thing, different compound: COc1ccc(N2/C(=N/c3ccccc3)SC(=N/S(=O)(=O)c3ccccc3)/C2=N\S(=O)(=O)c2ccccc2)cc1 0

Same thing, different compound: CCOC(=O)NC(=O)c1cn(CCCOC(=O)NCCCCCCNC(=O)OCCCn2c(=O)c(C(=O)NC(=O)OCC)cn(C)c2=O)c(=O)n(C)c1=O 0

###

Listing of entries alongside the reported GI50.
Tested on: SK-MEL-2
Test: NCI tumour cell line growth inhibition, 48 h
The source made the active and inactive calls. Rule as the data show it: active = GI50 up to about 1.1 µM and inactive = higher.

C[N+]12C=CC=C1C(N1CCCC1)c1scc(-c3ccccc3)c12 (stereo not given)	6.78 µM (inactive)
CN1OC2OC(=O)OC2[C@H]1[C@H]1O[C@H](c2ccccc2)OC1(C)c1cc(OC(=O)c2ccccc2)ccc1OC(=O)c1ccccc1 (stereo not given in full)	> 50 µM (inactive)
CCOP(=O)(OCC)/C(F)=C/c1ccc(F)cc1	> 100 µM (inactive)

Give the measured GI50 of Oc1ccc(/N=N/c2ccc(Cl)cc2)cc1 . 14.2 µM (inactive)

Same thing, different molecule: COC(=O)C(CC=O)C(=O)C(=O)Nc1cccc(C(F)(F)F)c1 (stereo not given) > 100 µM (inactive)

###

System: CAKI-1
Experiment: NCI tumour cell line growth inhibition, 48 h
The source made the active and inactive calls. No stated cut-off is given here; in the data, active = GI50 up to about 1.1 µM and inactive = higher.
ENDPOINT: GI50

Example entries begin here.
OC1CCN(c2c3ccccc3nc3ccccc23)CC1	20.1 µM (inactive)
Cc1ccc(NC(=O)c2cccc([N+](=O)[O-])c2O)c([N+](=O)[O-])c1	29.5 µM (inactive)
Cc1ccc(C(=O)NC(C)(C)C)cc1/N=N/N(C)C	> 100 µM (inactive)
c1ccc2c(c1)c1c3n2-c2cc(on2)C3CCC1 (centres undefined)	> 100 µM (inactive)
Cn1c(=O)c2c(no[n+]2[O-])c2ccccc21	18.2 µM (inactive)

For the record Cc1ccc(OC2CC(n3cnc4ncnc(Cl)c43)OC2Oc2ccc(C)cc2)cc1 (centres undefined) , what value of GI50 is listed for CAKI-1? 2.11 µM (inactive)

Same thing, different molecule: C(=C/c1nnnn1-c1ccccc1)/Nc1ccccc1 43 µM (inactive)

Same thing, different molecule: COC(=O)c1c(C)cccc1/C=C1\Cc2ccc(C)c(C)c2C1=O > 100 µM (inactive)

Same thing, different molecule: COc1cccc(/C=N/NC(=O)CSCC(=O)N/N=C/c2cccc(OC)c2OC)c1OC > 100 µM (inactive)

Same thing, different molecule: NS(=O)(=O)c1ccc(NCc2nc3ccccc3[nH]2)cc1 > 100 µM (inactive)

Same thing, different molecule: CC1CC(Nc2ccc(Br)cc2)N(C(=O)c2ccc(Br)cc2)O1 (centres undefined) 4.61 µM (inactive)

Same thing, different molecule: CC(=O)Oc1ccccc1C(=O)O > 100 µM (inactive)

Same thing, different molecule: COc1cc(/C=N/c2nncs2)ccc1O > 100 µM (inactive)

Same thing, different molecule: COC(=O)C1CC(OC(C)=O)C=C2C(=O)CCC21 (centres undefined) 27 µM (inactive)

Same thing, different molecule: C/C(=N\NC(=S)NCc1ccccc1)c1nc2cccnc2[nH]1 6.52 µM (inactive)

Same thing, different molecule: COc1cc(/C=C2/CCS(=O)(=O)c3ccc(C)cc3C2=O)cc(OC)c1OC 4.65 µM (inactive)

Same thing, different molecule: CCCN(CCC)C1CC(n2cc(C)c(=O)[nH]c2=O)OC1CO (centres undefined) > 100 µM (inactive)

Same thing, different molecule: CC(=O)OC1COC(N2C(=O)C(=O)c3cc(Br)c([N+](=O)[O-])cc32)C(OC(C)=O)C1OC(C)=O (centres undefined) > 100 µM (inactive)

Same thing, different molecule: Cc1cc(C(=O)N2CCN(Cc3ccccc3)CC2)c(C)o1 > 100 µM (inactive)

Same thing, different molecule: CC(C)OP(=O)(OC(C)C)/C(Cl)=N/Nc1ccc([N+](=O)[O-])cc1 97.3 µM (inactive)

Same thing, different molecule: COc1ccc2oc(-c3cc4cc(OC)ccc4o3)cc2c1 > 100 µM (inactive)

Same thing, different molecule: COC(=O)C1CSC(c2csc(CCN)n2)=N1 (centres undefined) > 100 µM (inactive)

Same thing, different molecule: O=c1n(CCCCn2c(=O)n(CC3CS3)c3ccccc32)c2ccccc2n1CC1CS1 (centres undefined) 17.3 µM (inactive)

Same thing, different molecule: OCC(O)C(O)C(O)c1nnn[nH]1 (centres undefined) > 100 µM (inactive)
